Listed below: cytotoxicity at 70.5 h values for each entry.
Experiment: Human HepG2 cell viability assay in 384 well format
Format: toxicity, cell-based
Set-up: dose 125 nL, time 70.5 hour; concentration not given beside the values
Settings: HepG2 cells, read-out: Inhibition

[
  {
    "Compound": "O=C(CCC(F)(F)F)N1CCCC(CO)(CC2CC2)C1 (stereo not given)",
    "cytotoxicity at 70.5 h, %": -8.1
  },
  {
    "Compound": "COc1cccc(OC2CN(C(=O)c3ccnc(OC)c3)C2)c1",
    "cytotoxicity at 70.5 h, %": -21
  },
  {
    "Compound": "CC(C)c1nnc2n1CCN(Cc1csc(-c3cnn(C)c3)n1)C2",
    "cytotoxicity at 70.5 h, %": -2.14
  },
  {
    "Compound": "CCc1nnc(CN2CCC(C3CCCCCN3C(=O)C3CC3)CC2)o1 (stereo not given)",
    "cytotoxicity at 70.5 h, %": -1.17
  },
  {
    "Compound": "CNCc1cc(F)ccc1Oc1ccc(F)cc1",
    "cytotoxicity at 70.5 h, %": 2.53
  }
]
